EXPERIMENTAL_SYSTEM: Voltage-gated inwardly rectifying potassium channel KCNH2 (Homo sapiens, UniProt Q12809)
Sequence (Q12809 whole entry): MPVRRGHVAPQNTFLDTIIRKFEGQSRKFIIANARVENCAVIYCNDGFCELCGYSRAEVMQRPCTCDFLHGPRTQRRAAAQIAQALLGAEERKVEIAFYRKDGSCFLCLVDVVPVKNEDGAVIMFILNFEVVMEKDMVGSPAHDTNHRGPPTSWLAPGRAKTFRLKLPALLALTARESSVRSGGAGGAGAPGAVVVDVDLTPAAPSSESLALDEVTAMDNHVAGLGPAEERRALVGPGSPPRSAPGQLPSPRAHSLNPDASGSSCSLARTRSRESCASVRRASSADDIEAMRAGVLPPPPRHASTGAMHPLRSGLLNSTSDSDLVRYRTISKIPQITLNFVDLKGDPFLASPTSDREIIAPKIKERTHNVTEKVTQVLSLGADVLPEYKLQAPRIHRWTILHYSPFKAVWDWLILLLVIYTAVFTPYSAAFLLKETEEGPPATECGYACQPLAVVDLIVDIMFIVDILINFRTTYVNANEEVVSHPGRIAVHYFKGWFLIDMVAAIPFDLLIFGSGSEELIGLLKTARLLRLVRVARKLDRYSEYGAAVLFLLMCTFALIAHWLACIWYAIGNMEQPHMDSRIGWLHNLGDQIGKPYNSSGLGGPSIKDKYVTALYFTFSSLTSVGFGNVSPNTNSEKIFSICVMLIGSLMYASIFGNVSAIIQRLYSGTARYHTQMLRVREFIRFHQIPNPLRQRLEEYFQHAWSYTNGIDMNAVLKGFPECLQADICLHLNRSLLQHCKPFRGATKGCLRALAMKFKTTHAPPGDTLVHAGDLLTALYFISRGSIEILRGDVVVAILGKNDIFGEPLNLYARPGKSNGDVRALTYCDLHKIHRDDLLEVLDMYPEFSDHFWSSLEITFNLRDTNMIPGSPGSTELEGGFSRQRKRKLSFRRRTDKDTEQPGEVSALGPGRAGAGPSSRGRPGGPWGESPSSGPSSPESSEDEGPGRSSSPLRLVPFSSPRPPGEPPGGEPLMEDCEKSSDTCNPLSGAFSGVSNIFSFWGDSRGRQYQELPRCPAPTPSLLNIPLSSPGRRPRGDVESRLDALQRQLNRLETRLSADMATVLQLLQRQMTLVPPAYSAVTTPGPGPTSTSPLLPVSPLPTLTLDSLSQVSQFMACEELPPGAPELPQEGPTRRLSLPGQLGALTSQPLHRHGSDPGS
Hi there, I'd appreciate the recorded IC50 for every entry that follows.
Quick reminder: number only, in nM, skip the unit.

Hello, I am looking for reported IC50 with Voltage-gated inwardly rectifying potassium channel KCNH2 (Homo sapiens, UniProt Q12809) for CCN1C[C@H]2C[C@@]2(c2ccc(NS(=O)(=O)c3ccc(C(C)C)cc3)cc2)C1 . Could you help?
1260

How about CC(C)c1ccc(S(=O)(=O)Nc2ccc(C34CNCC3C4)cc2)cc1 (single isomer, unassigned; enantiomer 2) ?
1580

Same question, CC(C)c1ccc(CS(=O)(=O)c2ccc([C@]34CNC[C@H]3C4)cc2)cc1 this time
3160

Further, for CC(C)c1ccc(S(=O)(=O)Nc2ccc(C34CNCC3C4)cc2)cc1 (single isomer, unassigned; enantiomer 1) ?
5010

What do you have for CC(C)c1ccc(S(=O)(=O)Cc2ccc([C@]34CNC[C@H]3C4)cc2)cc1 ?
1260

Also, O=S(=O)(Nc1ccc([C@]23CNC[C@H]2C3)cc1)c1ccc(C(F)(F)F)cc1 please.
794

// next record O=S(=O)(Nc1ccc([C@]23CNC[C@H]2C3)cc1)c1ccc(OC(F)(F)F)cc1
10000

Entry to check: C=CCN1C[C@H]2C[C@@]2(c2ccc(NS(=O)(=O)c3ccc(C(C)C)cc3)cc2)C1
100

Same thing, different compound: CC(C)c1ccc(S(=O)(=O)Nc2ccc([C@]34CNC[C@H]3C4)cc2)cc1 (racemic)
1000

And then CC(C)c1ccc(S(=O)(=O)Nc2ccc([C@@]34C[C@@H]3CN(C)C4)cc2)cc1 , what is it?
1580
